# measured_target: EGFR del19/C797S (Homo sapiens, UniProt P00533, C797S/DEL746-750)
# Sequence (P00533 with tags, fused parts or gaps DEL746-750/C797S): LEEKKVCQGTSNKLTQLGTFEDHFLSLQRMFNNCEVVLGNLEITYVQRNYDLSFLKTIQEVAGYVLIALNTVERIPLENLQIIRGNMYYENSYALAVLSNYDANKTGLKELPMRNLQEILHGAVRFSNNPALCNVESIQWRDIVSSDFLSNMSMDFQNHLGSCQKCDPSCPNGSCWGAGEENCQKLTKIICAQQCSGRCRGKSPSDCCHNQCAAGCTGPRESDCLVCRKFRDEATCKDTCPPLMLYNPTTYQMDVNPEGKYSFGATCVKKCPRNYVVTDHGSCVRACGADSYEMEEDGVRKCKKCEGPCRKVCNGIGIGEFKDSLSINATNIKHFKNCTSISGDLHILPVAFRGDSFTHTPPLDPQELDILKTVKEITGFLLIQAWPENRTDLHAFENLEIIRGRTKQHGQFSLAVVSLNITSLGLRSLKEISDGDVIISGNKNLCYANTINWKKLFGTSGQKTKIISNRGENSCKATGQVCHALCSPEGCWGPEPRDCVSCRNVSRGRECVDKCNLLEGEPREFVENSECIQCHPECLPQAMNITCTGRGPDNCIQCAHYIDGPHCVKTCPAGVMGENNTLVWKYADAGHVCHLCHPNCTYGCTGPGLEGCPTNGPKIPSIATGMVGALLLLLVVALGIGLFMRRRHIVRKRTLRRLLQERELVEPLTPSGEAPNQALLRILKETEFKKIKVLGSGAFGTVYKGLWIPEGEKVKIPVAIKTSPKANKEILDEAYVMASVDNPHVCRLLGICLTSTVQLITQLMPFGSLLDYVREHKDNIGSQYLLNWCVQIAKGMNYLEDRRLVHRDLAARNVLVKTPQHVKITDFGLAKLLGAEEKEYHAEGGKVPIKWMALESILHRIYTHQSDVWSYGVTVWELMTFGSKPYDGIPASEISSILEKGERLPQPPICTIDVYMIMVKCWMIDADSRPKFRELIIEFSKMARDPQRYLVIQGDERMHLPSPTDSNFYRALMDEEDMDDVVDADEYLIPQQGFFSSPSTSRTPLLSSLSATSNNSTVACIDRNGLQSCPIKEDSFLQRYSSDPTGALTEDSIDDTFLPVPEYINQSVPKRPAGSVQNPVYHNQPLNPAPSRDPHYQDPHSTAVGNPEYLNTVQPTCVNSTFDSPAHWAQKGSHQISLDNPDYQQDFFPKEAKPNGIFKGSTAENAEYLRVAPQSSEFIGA
# assay_method_text: Biochemical EGFR kinase assay (Lance Ultra TR-FRET), double mutant del19/C797S
# condition_label: Km ATP; read-out: IC50 del19/C797S (nM) Km ATP
property_measured: IC50 (nM)
State just the number; it will be interpreted in nM.

Value lookup for IC50; key = "Cn1ccc(-c2cnc(Nc3ccnc(-c4cnn(S(=O)(=O)C5CC5)c4)n3)cc2N[C@H]2CC[C@@H](N(C)C)CC2)n1"
0.4

Name the recorded IC50 for "O=S(=O)(C1CC1)n1cc(-c2nccc(Nc3cc(N[C@H]4CC[C@](O)(CO)CC4)c(-c4cc5n(n4)CCCC5)cn3)n2)cn1" .
0.4

What does the data say about its IC50? Entry: "CN(C)CCCn1ccc(-c2cnc(Nc3ccnc(-c4cnn(S(=O)(=O)C5CC5)c4)n3)cc2N[C@H]2CC[C@@H](CO)CC2)n1"
0.1

Give its IC50 value. Item: "O=S(=O)(C1CC1)n1cc(-c2nccc(Nc3cc(N[C@H]4CC[C@@H](F)CC4)c(-c4nc(C(F)F)cs4)cn3)n2)cn1"
370

Look at this molecule and give its reported IC50. "CN(C)C[C@H]1CC[C@@H](Nc2cc(Nc3ccnc(-c4cnn(S(=O)(=O)C5CC5)c4)n3)ncc2-c2cc(C(F)(F)F)n(C)n2)CC1"
0.8
